- system.under.test: T1, mouse programmed cell death protein 1 Fc fusion protein (mPD-1-Fc), mPD-1 C60S (aa 25-167) (Mus musculus, UniProt Q02242, stabilised)
- T1 construct: not cleaved; source: Expi293F, purified (Protein A, SEC; dimeric fraction); not shown: Fc (human), C-terminal, kept
- assay.summary: SPR; Carterra LSA; Fab from the ammonium sulfate precipitate of the culture supernatant immobilised on a NiHC200M chip; hPD-1 (1-1024 nM) or mPD-1-Fc (4-1024 nM) as analyte, fourfold dilution series, no regeneration; HBS-EP pH 7.4, 25 °C; medians over the spots of a construct, KD = koff/kon
- reported.conditions: one partner purified
The following ranges of kon define the classes used here: LOW = under 30000 M⁻¹ s⁻¹, MEDIUM = from 30000 M⁻¹ s⁻¹ up to 40000 M⁻¹ s⁻¹, HIGH = 40000 M⁻¹ s⁻¹ and over

Field: class (kon) — entry: toripalimab Fab L.S26A (Fab, V domains shown, as the heavy chain of Sm3; light chain of Sm3 with this change; numbers count from the chain's first residue; source: Brevibacillus, culture supernatant (ammonium sulfate precipitate); not shown: 6xHis, C-terminal, kept; 6xHN, C-terminal, kept) VH: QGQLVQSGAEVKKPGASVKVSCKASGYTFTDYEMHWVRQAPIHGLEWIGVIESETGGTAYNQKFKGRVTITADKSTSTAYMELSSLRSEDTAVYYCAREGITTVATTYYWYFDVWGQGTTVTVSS VL: DVVMTQSPLSLPVTLGQPASISCRSAQSIVHSNGNTYLEWYLQKPGQSPQLLIYKVSNRFSGVPDRFSGSGSGTDFTLKISRVEAEDVGVYYCFQGSHVPLTFGQGTKLEIK
HIGH

Field: class (kon) — entry: toripalimab Fab L.P100Q (Fab, V domains shown, as the heavy chain of Sm3; light chain of Sm3 with this change; numbers count from the chain's first residue; source: Brevibacillus, culture supernatant (ammonium sulfate precipitate); not shown: 6xHis, C-terminal, kept; 6xHN, C-terminal, kept) VH: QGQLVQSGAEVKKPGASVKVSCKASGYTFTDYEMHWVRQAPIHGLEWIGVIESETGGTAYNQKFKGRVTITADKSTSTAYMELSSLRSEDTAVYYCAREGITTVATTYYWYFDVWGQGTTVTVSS VL: DVVMTQSPLSLPVTLGQPASISCRSSQSIVHSNGNTYLEWYLQKPGQSPQLLIYKVSNRFSGVPDRFSGSGSGTDFTLKISRVEAEDVGVYYCFQGSHVQLTFGQGTKLEIK
LOW

Field: class (kon) — entry: toripalimab Fab L.R59Y (Fab, V domains shown, as the heavy chain of Sm3; light chain of Sm3 with this change; numbers count from the chain's first residue; source: Brevibacillus, culture supernatant (ammonium sulfate precipitate); not shown: 6xHis, C-terminal, kept; 6xHN, C-terminal, kept) VH: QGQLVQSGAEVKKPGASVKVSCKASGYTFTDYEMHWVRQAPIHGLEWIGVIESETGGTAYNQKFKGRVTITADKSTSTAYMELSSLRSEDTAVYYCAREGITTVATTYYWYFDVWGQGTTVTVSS VL: DVVMTQSPLSLPVTLGQPASISCRSSQSIVHSNGNTYLEWYLQKPGQSPQLLIYKVSNYFSGVPDRFSGSGSGTDFTLKISRVEAEDVGVYYCFQGSHVPLTFGQGTKLEIK
HIGH

Field: class (kon) — entry: toripalimab Fab L.S28Y (Fab, V domains shown, as the heavy chain of Sm3; light chain of Sm3 with this change; numbers count from the chain's first residue; source: Brevibacillus, culture supernatant (ammonium sulfate precipitate); not shown: 6xHis, C-terminal, kept; 6xHN, C-terminal, kept) VH: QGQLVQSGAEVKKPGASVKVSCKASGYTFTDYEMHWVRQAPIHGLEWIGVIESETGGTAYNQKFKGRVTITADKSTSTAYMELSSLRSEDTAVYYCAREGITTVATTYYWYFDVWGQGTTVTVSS VL: DVVMTQSPLSLPVTLGQPASISCRSSQYIVHSNGNTYLEWYLQKPGQSPQLLIYKVSNRFSGVPDRFSGSGSGTDFTLKISRVEAEDVGVYYCFQGSHVPLTFGQGTKLEIK
MEDIUM

Field: class (kon) — entry: toripalimab Fab H.F64A (Fab, V domains shown, heavy chain of Sm3 with this change; numbers count from the chain's first residue; as the light chain of Sm3; source: Brevibacillus, culture supernatant (ammonium sulfate precipitate); not shown: 6xHis, C-terminal, kept; 6xHN, C-terminal, kept) VH: QGQLVQSGAEVKKPGASVKVSCKASGYTFTDYEMHWVRQAPIHGLEWIGVIESETGGTAYNQKAKGRVTITADKSTSTAYMELSSLRSEDTAVYYCAREGITTVATTYYWYFDVWGQGTTVTVSS VL: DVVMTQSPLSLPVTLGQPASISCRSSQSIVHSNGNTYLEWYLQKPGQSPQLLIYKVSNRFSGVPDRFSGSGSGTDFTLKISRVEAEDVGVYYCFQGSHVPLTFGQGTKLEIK
MEDIUM

Field: class (kon) — entry: toripalimab Fab L.T102Y (Fab, V domains shown, as the heavy chain of Sm3; light chain of Sm3 with this change; numbers count from the chain's first residue; source: Brevibacillus, culture supernatant (ammonium sulfate precipitate); not shown: 6xHis, C-terminal, kept; 6xHN, C-terminal, kept) VH: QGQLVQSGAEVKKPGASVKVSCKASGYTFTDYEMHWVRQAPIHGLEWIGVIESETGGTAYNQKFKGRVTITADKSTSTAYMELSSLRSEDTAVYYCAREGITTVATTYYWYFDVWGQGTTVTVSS VL: DVVMTQSPLSLPVTLGQPASISCRSSQSIVHSNGNTYLEWYLQKPGQSPQLLIYKVSNRFSGVPDRFSGSGSGTDFTLKISRVEAEDVGVYYCFQGSHVPLYFGQGTKLEIK
MEDIUM

Field: class (kon) — entry: toripalimab Fab L.V99Q (Fab, V domains shown, as the heavy chain of Sm3; light chain of Sm3 with this change; numbers count from the chain's first residue; source: Brevibacillus, culture supernatant (ammonium sulfate precipitate); not shown: 6xHis, C-terminal, kept; 6xHN, C-terminal, kept) VH: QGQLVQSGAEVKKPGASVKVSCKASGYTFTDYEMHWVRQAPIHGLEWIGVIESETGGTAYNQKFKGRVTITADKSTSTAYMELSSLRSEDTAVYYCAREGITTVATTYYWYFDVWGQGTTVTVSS VL: DVVMTQSPLSLPVTLGQPASISCRSSQSIVHSNGNTYLEWYLQKPGQSPQLLIYKVSNRFSGVPDRFSGSGSGTDFTLKISRVEAEDVGVYYCFQGSHQPLTFGQGTKLEIK
MEDIUM

Field: class (kon) — entry: toripalimab Fab H.S53Y (Fab, V domains shown, heavy chain of Sm3 with this change; numbers count from the chain's first residue; as the light chain of Sm3; source: Brevibacillus, culture supernatant (ammonium sulfate precipitate); not shown: 6xHis, C-terminal, kept; 6xHN, C-terminal, kept) VH: QGQLVQSGAEVKKPGASVKVSCKASGYTFTDYEMHWVRQAPIHGLEWIGVIEYETGGTAYNQKFKGRVTITADKSTSTAYMELSSLRSEDTAVYYCAREGITTVATTYYWYFDVWGQGTTVTVSS VL: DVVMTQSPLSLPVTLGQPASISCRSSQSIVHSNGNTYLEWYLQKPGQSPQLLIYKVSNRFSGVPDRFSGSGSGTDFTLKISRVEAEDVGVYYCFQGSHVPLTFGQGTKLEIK
MEDIUM

Field: class (kon) — entry: toripalimab Fab L.L101A (Fab, V domains shown, as the heavy chain of Sm3; light chain of Sm3 with this change; numbers count from the chain's first residue; source: Brevibacillus, culture supernatant (ammonium sulfate precipitate); not shown: 6xHis, C-terminal, kept; 6xHN, C-terminal, kept) VH: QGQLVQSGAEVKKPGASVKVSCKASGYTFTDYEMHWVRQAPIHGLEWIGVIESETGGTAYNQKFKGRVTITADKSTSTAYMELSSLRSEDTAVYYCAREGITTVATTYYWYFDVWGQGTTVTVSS VL: DVVMTQSPLSLPVTLGQPASISCRSSQSIVHSNGNTYLEWYLQKPGQSPQLLIYKVSNRFSGVPDRFSGSGSGTDFTLKISRVEAEDVGVYYCFQGSHVPATFGQGTKLEIK
LOW

Field: class (kon) — entry: toripalimab Fab H.V104A (Fab, V domains shown, heavy chain of Sm3 with this change; numbers count from the chain's first residue; as the light chain of Sm3; source: Brevibacillus, culture supernatant (ammonium sulfate precipitate); not shown: 6xHis, C-terminal, kept; 6xHN, C-terminal, kept) VH: QGQLVQSGAEVKKPGASVKVSCKASGYTFTDYEMHWVRQAPIHGLEWIGVIESETGGTAYNQKFKGRVTITADKSTSTAYMELSSLRSEDTAVYYCAREGITTAATTYYWYFDVWGQGTTVTVSS VL: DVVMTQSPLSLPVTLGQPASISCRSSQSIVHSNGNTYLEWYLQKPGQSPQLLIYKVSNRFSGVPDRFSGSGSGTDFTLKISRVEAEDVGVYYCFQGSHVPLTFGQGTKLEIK
HIGH

Every entry's value here was drawn from paper PMC10663500.
